Test: LTI-291-002 multiple ascending dose study: plasma and CSF pharmacokinetics
Assay type: in vivo, human
Details: 30 mg daily, dose 14, geometric mean
Readout Kind: Cavg (ng/mL)
Numeric answer only, unit ng/mL assumed.

Request: # return recorded Cavg for entry CCCCCO[C@H]1CC[C@H](NC(=O)c2cnn3c(C)cc(C)nc23)CC1
Result: 1090

====

Experiment: LTI-291-003 multiple dose study in GBA-PD: plasma and CSF pharmacokinetics
Type: in vivo, human
Settings: human, plasma, oral, 10 mg, 10 mg daily, dose 28, GBA-PD, geometric mean; read-out: AUC0-last
Readout Kind: AUC(0-t) (ng·h/mL)
Numeric answer only, unit ng·h/mL assumed.

Request: # return recorded AUC(0-t) for entry CCCCCO[C@H]1CC[C@H](NC(=O)c2cnn3c(C)cc(C)nc23)CC1 [Compound A]
Result: 2520
